# System: A498
# Method: NCI tumour cell line growth inhibition, 48 h
Active and inactive are the calls of the source. Cut-off read from the data, not from the text of the source: active = GI50 up to about 1.1 µM and inactive = higher.
# output must be one of class 1 for active, class 0 for inactive

Before answering, review these 5 worked examples.
O=[N+]([O-])c1ccc(N2N=C(c3ccc4ccccc4c3O)CC2c2ccc(Cl)cc2)c([N+](=O)[O-])c1 (stereo unspecified) | class 0
COc1ccc2nc3cc(Cl)ccc3c(Sc3ccccc3[N+](=O)[O-])c2c1 | class 0
COc1ccc(-c2nnc3nc4ccccc4n3c2O)cc1 | class 0
CC1=NN(c2nc(N)nc(CSc3cc(Cl)c(C)cc3S(N)(=O)=O)n2)C(C)(C)C1 | class 0
Oc1ccc(C(c2ccc(O)cc2)c2ccc(O)cc2)cc1 | class 0

We now examine a further compound.
Short answer needed: outcome of this test for Nc1c(Br)cc2c(c1Br)Cc1cc(Br)ccc1-2 ? class 1

###

# Tested on: CCRF-CEM
# Method: NCI tumour cell line growth inhibition, 48 h
Activity calls are given as the source filed them. Cut-off read from the data, not from the text of the source: active = GI50 up to about 1.1 µM and inactive = higher.
# output must be one of active, inactive

CCN(CC)C(=S)N/N=C/c1cc([N+](=O)[O-])ccc1O | inactive
CN1C(c2ccccc2)CC(=O)C(N)C1c1ccccc1 (stereo not given) | inactive
CC(=O)O[C@H]1CCC2[C@@H]3CC[C@]4(C)CC(=O)C=C[C@]4(C)C3CC[C@@]21C (stereo not given in full) | inactive
COc1cc2cc3c4cc(OC)c(OC)cc4cc[n+]3c(C)c2cc1OC [CORALYNE] | inactive
CS(=O)(=O)OCCCCOS(=O)(=O)CF | inactive
CN(C)CN(C)c1nc(N(C)C)nc(N(C)C)n1 | inactive
FC(F)(F)c1ccc2c(c1)nc(Cc1ccccc1)n2C[C@@H]1CCCN2CCCCC12 (stereo not given in full) | inactive
CS(=O)(=O)c1cc(=O)c2ccccc2s1 | inactive

Short answer needed: outcome of this test for CN1C(=O)[C@@H]2[C@@H]3c4ccccc4N[C@@H]3c3[nH]c4ccccc4c3[C@@H]2C1=O ? inactive

// query: S=C(N/N=C(/c1ccccc1)c1ccccn1)Nc1cccc(Cl)c1 active

###

# System: LOX IMVI
# Method: NCI tumour cell line growth inhibition, 48 h
Calls of active or inactive are those of the source. No stated cut-off is given here; in the data, active = GI50 up to about 1.1 µM and inactive = higher.
# output must be one of T (active), F (inactive)

Before answering, review these 3 worked examples.
CCCCCCCCC(=O)CCCCCCCCC(=O)O | F
Cc1nn(C(=O)Cc2ccccc2)c2c1C(c1ccccc1)SC(=N)N2 (configuration not stated) | F
COc1ccc(/C(Cl)=C(/c2ccc(O)cc2)c2ccc(OCCN(C)C)cc2)cc1 | F

Short answer needed: outcome of this test for CCC(C)C(NC(=O)c1c2ccccc2nc2ccccc12)C(=O)O (configuration not stated) ? F

// query: CC(C)(O)C1COC2=C1C(=O)c1ccccc1C2=O (configuration not stated) F

// query: Nc1c(Br)cc2c(c1Br)Cc1cc(Br)ccc1-2 F

// query: O=C(O)C(Sc1ccc(Cl)cc1)Sc1ccc(Cl)cc1 F

// query: CN(C)CC(=O)N1CCc2c([nH]c3ccccc23)C1c1cccnc1 (configuration not stated) F

// query: CN(C)S(=O)(=O)Nc1ccccn1 F

// query: O=C(CC1(O)C(=O)Nc2c(Cl)cc(Cl)cc21)c1cccc2ccccc12 (configuration not stated) F

###

# Test system: A498
# Method: NCI tumour cell line growth inhibition, 48 h
The source made the active and inactive calls. Rule as the data show it: active = GI50 up to about 1.1 µM and inactive = higher.
Measured Endpoint: GI50

These recorded examples may help you get a feel for the data.
CC(=O)c1c2c(cc3c1CC1(Cc4cc5c(cc4C1)CCCC5)C3)CCCC2 | 56.6 µM (inactive)
CCOC(=O)c1c[nH]c2c(Sc3ccccc3)nccc2c1=O | > 100 µM (inactive)
C=C1C(C(=O)O)C1C(=O)O (stereo not given) | > 100 µM (inactive)
O=C1c2ccccc2CCC1C(O)(C(F)(F)F)C(F)(F)F (stereo not given) | > 100 µM (inactive)
CC(=O)OCC1OC(n2c(C)c(C)cc(C#N)c2=S)C(OC(C)=O)C(OC(C)=O)C1OC(C)=O (stereo not given) | > 100 µM (inactive)

Please report GI50 for every entry that follows.
1. O=[N+]([O-])c1ccc(-c2cc(O)c3nc4ccccc4n3c2)cc1
2. O=[N+]([O-])c1cc([N+](=O)[O-])c(/C=C/c2ccc(Cl)c(Cl)c2)cc1/C=C/c1ccc(Cl)c(Cl)c1
3. C/C(CC(=O)NCCc1ccccc1)=N\NC(=O)C[n+]1ccccc1
4. Cc1cnc(SCCN2CCN(C)CC2)nc1-c1cc2ccccc2s1

1: > 100 µM (inactive); 2: > 100 µM (inactive); 3: > 100 µM (inactive); 4: 15.3 µM (inactive)

If you can, please state the reported GI50 value of C=C1c2nc3ccccc3n2C=C(c2ccccc2)N1c1ccc(OC)cc1 . > 100 µM (inactive)

###

# System: RPMI-8226
# Method: NCI tumour cell line growth inhibition, 48 h
The source made the active and inactive calls. Cut-off read from the data, not from the text of the source: active = GI50 up to about 1.1 µM and inactive = higher.
# output must be one of label 1 for active, label 0 for inactive

Before answering, review these 2 worked examples.
CN(c1ccccc1)C1C(=O)N(c2ccccc2)C1/C=C/c1ccccc1 (stereo not drawn) | label 0
CC1(C)CCC[C@@]2(C)C1CC[C@@]1(CO1)[C@@H]2/C=C\C(C=O)CC=O (stereo partly drawn) | label 0

Short answer needed: outcome of this test for CC(=O)/N=C1\C=C(NC(C)=O)C(=O)c2ccccc21 ? label 0

// query: Cc1cc(O)c2c(c1O)C(=O)c1cccc(O)c1C2=O label 0

// query: N=C(N)NS(=O)(=O)c1ccc(Nc2c3ccccc3nc3c(C(=O)N4CCN(CCO)CC4)ccc(Cl)c23)cc1 label 0

// query: O=C(NNC(=O)c1ccccc1Cl)c1ccccc1O label 0

// query: O=c1[nH]nc(Cc2c[nH]c3ccccc23)o1 label 0

// query: O=C(O)c1ccccc1NS(=O)(=O)c1ccc(Cl)cc1 label 0

// query: O=C(O)CCSC(=O)Nc1cccc([N+](=O)[O-])c1 label 0

// query: O=C1NC(=S)N/C1=C\c1ccc(Br)s1 label 0

// query: O=C(Nc1ccc(C(F)(F)F)cc1[N+](=O)[O-])c1cccnc1 label 0

// query: CC(=O)OC1=C(c2ccccc2)S(=O)(=O)c2ccccc21 label 0

// query: COc1cc2ccnc3c(=C(SC)SC)c(=O)c(c1OC)c23 label 0

// query: CCCCCCc1ccc(C(=O)NO)cc1 label 0

// query: CNC(=O)NC(CCCCNC(=O)OCc1ccccc1)C(=O)OCc1ccccc1 (stereo not drawn) label 0

// query: O=C1C(Cl)=C(N2CCN(c3ccccn3)CC2)C(=O)c2c(O)ccc(O)c21 label 1

###

# Tested on: OVCAR-8
# Method: NCI tumour cell line growth inhibition, 48 h
Calls of active or inactive are those of the source. No stated cut-off is given here; in the data, active = GI50 up to about 1.1 µM and inactive = higher.
# output must be one of 1 = active, 0 = inactive

Before answering, review these 10 worked examples.
CC(=O)OCC12CC(CC1OC(C)=O)c1ccccc12 (configuration not stated) | 0
CCCN(CCC)C(=O)Cc1c2n(c3ccccc13)CCCc1ccccc1-2 | 0
CCOC(=O)C1Cc2[nH]c3ccccc3c2C(C)C1C (configuration not stated) | 0
O=[N+]([O-])c1cc([N+](=O)[O-])c(/C=C/c2ccc(Cl)c(Cl)c2)cc1/C=C/c1ccc(Cl)c(Cl)c1 | 0
COc1cc(=O)oc(/C=C/CO)c1C | 0
C=C1c2nc3ccccc3n2C=C(c2ccccc2)N1c1ccc(OC)cc1 | 0
O=C1Nc2ccc(Cl)cc2C(=O)N2CCC[C@@H]12 | 0
CCCNC(=O)Cn1c2c(c3ccccc31)CCCC2 | 0
COc1ccc(-c2cc(-c3ccccc3)c(C#N)c(=O)n2C2OC(CO)C(O)C(O)C2O)cc1 (configuration not stated) | 0
COc1nc2c(nc(N)n2C2OC(CO)C(O)C(O)C2O)c(=O)[nH]1 (configuration not stated) | 0

Short answer needed: outcome of this test for CC1(C)Oc2ccc3ccc(=O)oc3c2C(O)C1O (configuration not stated) ? 0

// query: O=S(O)CCCCSSCc1ccccc1CSSCCCCS(=O)O 0

###

# Tested on: OVCAR-4
# Method: NCI tumour cell line growth inhibition, 48 h
Activity calls are given as the source filed them. No stated cut-off is given here; in the data, active = GI50 up to about 1.1 µM and inactive = higher.
# output must be one of active, inactive

CCN1CCN=c2c3cc(OC)ccc3n3cnc4ccc1c2c43 | active
Cc1nc2sc(CCl)nn2c(=O)c1Cl | inactive

Short answer needed: outcome of this test for CNC(=S)Nc1ccc(OC)c2ccccc12 ? inactive

// query: O=Cc1cc2sc(C=O)cc2s1 inactive

// query: N#Cc1sc2nc3ccccc3n2c1N inactive

// query: CC(=O)O[C@H]1C(=O)[C@@]2(C)[C@H]([C@H](OC(=O)c3ccccc3)[C@]3(O)C[C@H](OC(=O)[C@H](O)[C@@H](NC(=O)c4ccc(N)cc4)c4ccccc4)C(C)=C1C3(C)C)[C@]1(OC(C)=O)CO[C@@H]1C[C@@H]2O inactive

// query: O=C(O)c1ccccc1Cc1ccco1 inactive

// query: C=C1c2nc3ccccc3n2C=C(c2ccccc2)N1c1ccc(OC)cc1 inactive

// query: O=C1CC(=O)N(c2ccccc2)N1/C(=C/c1ccccc1)c1ccccc1 inactive

// query: C[C@]12C=CC(=O)C=C1CC[C@@H]1[C@@H]2CC[C@]2(C)OC(=O)CC[C@@H]12 [TESTOLACTONE] inactive

// query: N/N=C1/C2CN3CCN(C2)CC1(c1ccc([N+](=O)[O-])cc1)C3 inactive
